The measured values listed here are drawn from patent US20230174472A1.

// values below are reported CC50
assay: in vitro; settings: dog

>  <Compound>
C=C[C@]1(C)C[C@@H](OC(=O)CS[C@@H]2CC[C@@H](N)C[C@H]2O)[C@]2(C)C(C)CC[C@]3(CCC(=O)[C@H]32)[C@@H](C)[C@@H]1O (some centres unmarked)

>  <Unit Annotation>
µM

>  <Cmp>
=

>  <CC50>
23.8

$$$$
>  <Compound>
CCOC(=O)C1=C[C@@H](OC(CC)CC)[C@H](NC(C)=O)[C@@H](N)C1 [Oseltamivir, reference compound]

>  <Unit Annotation>
µM

>  <Cmp>
>

>  <CC50>
200

$$$$

----------
assay: in vitro; conditions: human, TC50

>  <Molecule>
C=C[C@]1(C)C[C@@H](OC(=O)CSCCN(CC)CC)[C@]2(C)[C@H](C)CC[C@]3(CCC(=O)[C@H]32)[C@@H](C)[C@@H]1O [Tiamulin, reference compound]

>  <Unit Annotation>
µM

>  <CC50 at 6 days>
67.9

$$$$

----------
tested on: human respiratory syncytial virus (strain RSVA2); assay: inhibition of virus-induced CPE, RSVA2 in HEp2 cells (XTT); settings: Example 9; MOI 0.003
Observation Type: EC50

>  <Smiles Repr>
Cc1ccc(CCCO)c(NCc2ccc3nc(NCCCN4CCOCC4)n(Cc4nc(C)ccc4O)c3c2)c1

>  <Observation Type>
EC50

>  <Result>
0.2 nM

$$$$

----------
tested on: MRC-5 cells; conditions: human, 6 days

>  <Compound>
C=C[C@]1(C)C[C@@H](OC(=O)CS[C@@H]2CC[C@@H](N)C[C@H]2O)[C@]2(C)C(C)CC[C@]3(CCC(=O)[C@H]32)[C@@H](C)[C@@H]1O (stereo partly shown)

>  <CC50>
> 50 µM

$$$$

----------
assay: in vitro; conditions: human
Observation Type: CC50 (µM)

>  <Compound>
C=C[C@]1(C)C[C@@H](OC(=O)CS[C@@H]2CC[C@@H](N)C[C@H]2O)[C@]2(C)C(C)CC[C@]3(CCC(=O)[C@H]32)[C@@H](C)[C@@H]1O (some centres unmarked)

>  <Observation Type>
CC50

>  <Cmp>
=

>  <Recorded Number>
24.1

$$$$
>  <Compound>
CCOC(=O)/C=C/[C@H](C[C@@H]1CCNC1=O)NC(=O)[C@@H](CC(=O)[C@@H](NC(=O)c1cc(C)on1)C(C)C)Cc1ccc(F)cc1

>  <Observation Type>
CC50

>  <Cmp>
>

>  <Recorded Number>
0.1

$$$$

----------
experiment: in vitro; conditions: human
Observation Type: CC50 at 6 days (µM)

>  <Compound>
C=C[C@]1(C)C[C@@H](OC(=O)CSCCN(CC)CC)[C@]2(C)[C@H](C)CC[C@]3(CCC(=O)[C@H]32)[C@@H](C)[C@@H]1O [Tiamulin, reference compound]

>  <Observation Type>
CC50 at 6 days

>  <Unit Annotation>
µM

>  <Recorded Number>
62.9

$$$$

----------
assay: cell viability of uninfected HeLa cells; details: human

>  <Molecule>
C=C[C@]1(C)C[C@@H](OC(=O)CS[C@@H]2CC[C@@H](N)C[C@H]2O)[C@]2(C)C(C)CC[C@]3(CCC(=O)[C@H]32)[C@@H](C)[C@@H]1O (stereo partly shown) [Lefamulin]

>  <CC50 at 6 days>
72.7 µM

$$$$
